Assay: NFAT Signaling Pathway (AID 444);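 also: carbachol stimulus at about its EC50 of 1 µM final; % is scaled to controls: 0 for no effect and ±100 for the full control effect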
Conditions: Jurkat NFAT-bla M1, carbachol, beta-lactamase ratio, 5 h; at 7.69 µM (top of the series) unless noted
Results filed as inconclusive are left out. Active and inactive are the calls of the source. Calls follow the shape of the dose curve; as a rule, active = well fitted curve in either direction with a large enough effect (not every such curve was filed as active); inconclusive = small, poorly fitted or top-dose-only effect, or another doubt; inactive = flat fitted curve, though single readings scatter.
measured_parameter: activity change, negative = inhibition

Ask | For the compound CN(C)C(=O)c1ccc(-c2cncnc2NC2CCNCC2)cc1 , give its measured activity change, negative = inhibition value.
Reply | 9.18% (inactive)

Ask | For the compound Cn1c(=O)c(-c2cccs2)nc2cncnc21 , give its measured activity change, negative = inhibition value.
Reply | 2.85% (inactive)

Ask | For the compound N#CCCn1c(=O)c(CCc2ccccc2)nc2cnc(OCc3ccccc3)nc21 , give its measured activity change, negative = inhibition value.
Reply | -3.34% (inactive)

Ask | For the compound CC(=O)NCCNc1cc(-c2ccccc2CN(C)C)ncn1 , give its measured activity change, negative = inhibition value.
Reply | -5.44% (inactive)

Ask | For the compound Cn1cccc1C(=O)N1CCC2(CC1)CN(C(=O)Nc1ccccc1)C2 , give its measured activity change, negative = inhibition value.
Reply | 8.61% (inactive)

Ask | For the compound Cc1nc2cnc(N3CCOCC3)nc2n(Cc2ccc(F)cc2)c1=O , give its measured activity change, negative = inhibition value.
Reply | -17.2% (inactive)

Ask | For the compound CCn1c(=O)c2[nH]c(-c3ccccc3)nc2n(CC)c1=O , give its measured activity change, negative = inhibition value.
Reply | 15.8% [at 38 µM] (inactive)

Ask | For the compound Cc1ccccc1-c1nc(N2CCN(C)CC2)c2ccccc2n1 , give its measured activity change, negative = inhibition value.
Reply | 0.11% (inactive)

Ask | For the compound COc1ccc(-n2c(=O)cnc3cnc(N(C)C)nc32)cc1 , give its measured activity change, negative = inhibition value.
Reply | 15.7% (inactive)

Ask | For the compound COc1ncc2nc(-c3ccc(F)cc3)c(=O)n(C3CC3)c2n1 , give its measured activity change, negative = inhibition value.
Reply | -21.4% (inactive)

Ask | For the compound Cn1cccc1C(=O)N1CCC2(CCN(C(=O)Nc3cccc(F)c3)CC2)CC1 , give its measured activity change, negative = inhibition value.
Reply | 15.8% (inactive)

----------
Assay: NFAT Signaling Pathway (AID 444);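 also: carbachol stimulus at about its EC50 of 1 µM final; % is scaled to controls: 0 for no effect and ±100 for the full control effect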
Conditions: Jurkat NFAT-bla M1, carbachol, beta-lactamase ratio, 5 h; at 7.69 µM (top of the series) unless noted
Procedure: NCGC Assay Overview: The nuclear factor of activated T cells (NFAT) family of transcription factors has been found primarily in most immune system cells and some other non-immune cells. NFAT plays the immunomodulatory role, primarily in T-cell activation and differentiation. […] NCGC Assay Protocol Summary: The cells were prepared in RPMI 1640 medium containing 0.1% dialyzed FBS and 25 mM HEPES at 1.6 x 10^6cell/ml. […] The %Activity was determined from the ratio of 460nm/530nm. […]
Records with an inconclusive call do not appear.
measured_parameter: activity change, negative = inhibition (%)
Report as a plain number; the unit % is understood.

Ask | For the molecule COc1ccccc1-c1nccc(-n2ccnc2)n1 , give its measured activity change, negative = inhibition value.
Reply | -2.21

Ask | For the molecule COc1ccc(-c2nc3cnc(Nc4cccc(OC)c4)nc3n(C3CC3)c2=O)cc1 , give its measured activity change, negative = inhibition value.
Reply | -8.58

Ask | For the molecule COCC(=O)N1CCC[C@@]2(CCN(C(=O)Nc3ccc(OC)cc3)C2)C1 , give its measured activity change, negative = inhibition value.
Reply | 11.4

Ask | For the molecule O=S(=O)(c1ccccc1)N1CCC2(CC1)CN(c1ncccn1)C2 , give its measured activity change, negative = inhibition value.
Reply | 26.7

Ask | For the molecule CN1CCN(c2ncnc3ccc(-c4ccc(C(=O)N(C)C)cc4)cc23)CC1 , give its measured activity change, negative = inhibition value.
Reply | 1.97

Ask | For the molecule Cc1cnc(CNc2ncncc2-c2ccccc2C#N)cn1 , give its measured activity change, negative = inhibition value.
Reply | -5.21

Ask | For the molecule COc1ccc(Oc2ncc3ncc(=O)n(C)c3n2)cc1 , give its measured activity change, negative = inhibition value.
Reply | -6.92

Ask | For the molecule Cn1c(=O)c(-c2cccs2)nc2cnc(N3CCOCC3)nc21 , give its measured activity change, negative = inhibition value.
Reply | -9.83

Ask | For the molecule Clc1ccccc1-c1ccc2ncnc(N3CCNCC3)c2c1 , give its measured activity change, negative = inhibition value.
Reply | -4.54

Ask | For the molecule Cc1noc(C)c1-c1ccc2ncnc(NC3CCNCC3)c2c1 , give its measured activity change, negative = inhibition value.
Reply | -27.4

Ask | For the molecule CC(C)NC(=O)N1CCC2(CC1)CCN(S(C)(=O)=O)CC2 , give its measured activity change, negative = inhibition value.
Reply | 6.9

----------
Target: Glutathione peroxidase 1 (Homo sapiens) (UniProt P07203)
Sequence (P07203 whole entry, looked up): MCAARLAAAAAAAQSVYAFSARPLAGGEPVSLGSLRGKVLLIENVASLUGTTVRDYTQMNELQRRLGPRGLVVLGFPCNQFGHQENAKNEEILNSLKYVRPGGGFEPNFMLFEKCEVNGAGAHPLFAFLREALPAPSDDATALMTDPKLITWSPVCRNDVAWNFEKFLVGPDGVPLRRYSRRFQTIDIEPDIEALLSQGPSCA
Test: Primary qHTS Assay for Inhibitors of Recombinant Selenoprotein Glutathione Peroxidase 1 (GPX1) (AID 1845191); also: nearly all actives have a fitted effect of over 65% in size
Settings: recombinant GPX1, GR-coupled NADPH fluorescence, 15 min; series mostly up to 48.8 µM
Results filed as inconclusive are left out. Activity calls are given as the source filed them. Calls come from the whole dose curve; as a rule, active = well fitted inhibition curve with a large enough effect; inconclusive = small, poorly fitted or top-dose-only effect; inactive = flat fitted curve, though single readings scatter.
measured_parameter: outcome

compound	measured_parameter	value_observed
O=C(O)C[C@H]1CCc2c1[nH]c1ccc(OCc3ccc(C4CCCC4)c(C(F)(F)F)c3)cc21	outcome	inactive
CN1C(N)=N[C@](C)(c2cc(NC(=O)c3ccc(F)cn3)ccc2F)CS1(=O)=O	outcome	inactive
CCOC(=O)N[C@@H]1CC[C@@H]2[C@@H](C1)C[C@H]1C(=O)O[C@H](C)[C@H]1[C@H]2/C=C/c1ccc(-c2cccc(F)c2)cn1	outcome	inactive
C=C1C(=O)O[C@@H]2[C@H]3C(C)=CC[C@@]34O[C@@]4(C)CC[C@@H]12	outcome	inactive
NC(=O)c1cnc2[nH]ccc2c1NC1C2CC3C[C@H]1CC(O)(C3)C2 (some centres undefined)	outcome	inactive
Cn1cc(/C=C/C(=O)c2cccc(F)c2)cc1/C=C/C(=O)NO	outcome	inactive
Cc1c(-c2cnccn2)ssc1=S	outcome	inactive
Nc1cccc2c1CN([C@H]1CCC(=O)NC1=O)C2=O	outcome	inactive

Ask | For the compound CC(=O)N[C@H]1CSSC[C@@H](C(N)=O)NC(=O)[C@H](C(C)C)NC(=O)[C@H](C)NC(=O)[C@H](Cc2cnc[nH]2)NC1=O , give its measured outcome value.
Reply | inactive

----------
Experiment: qHTS assay for small molecule disruptors of mitochondrial membrane potential screened against the NCATS CANVASS Library (AID 1347389); also: nearly all actives have a fitted effect of over 60% in size; also: potency is read from the fitted curve at half-maximal effect
Conditions: HepG2 mitochondrial membrane potential, m-MPI red/green ratio, 1.5 h; series mostly up to 46.1 µM
Results filed as inconclusive are left out. Active and inactive are the calls of the source. Calls come from the whole dose curve; as a rule, active = well fitted inhibition curve with a large enough effect; inconclusive = small, poorly fitted or top-dose-only effect; inactive = flat fitted curve, though single readings scatter.
measured_parameter: Potency

molecule	measured_parameter	value_observed
CO/C=C/C(=O)c1cc2cnc3c(N)cc(=NC(=O)C(C)C)c([nH]1)c23	Potency	3.31 µM (active)
CC1(C)CC[C@]2(CO)CC[C@]3(C)C(=CCC4[C@@]5(C)CC[C@H](O)C(C)(C)C5CC[C@]43C)C2C1 (some centres undefined)	Potency	inactive
COc1ccc([C@@H]2c3cc4c(cc3C(=O)C(C)C2C)OCO4)cc1OC (some centres undefined)	Potency	inactive
C=C[C@@](C)(O)CC[C@@H]1[C@@]2(C)CCCC(C)(C)[C@@H]2CC[C@@]1(C)O	Potency	inactive
C=C(Cl)[C@](Cl)(CBr)CC[C@@H](Br)C(C)(C)Cl	Potency	inactive
C/C(=C\[C@@H](C)CC/C=C/CC/C=C/C(=O)O)[C@@H](O)[C@H](C)C(=O)CCCC1CC(=O)NC(=O)C1	Potency	inactive
CC1=C[C@H]2[C@H]3C(=O)C(c4ccc(O)cc4)=C[C@@]3(c3ccc(O)cc3)[C@@H]1C(=O)[C@]2(C)O	Potency	inactive
CCC(C)=C1OC(=O)[C@H](C)[C@H](O)[C@H](Cc2cccnc2)NC(=O)C(NC(=O)c2ncccc2O)C(C)OC1=O (some centres undefined)	Potency	inactive
Cc1occ2c1C(=O)c1c(cc(O)c(O)c1O)C2=O	Potency	7.41 µM (active)
O[C@H]1C=C2[C@H]3CN(Cc4cc5c(cc43)OCO5)[C@H]2C[C@@H]1O	Potency	inactive

Ask | For the molecule COc1c(O)cc2c(c1O)C(=O)c1c(coc1C)C2=O , give its measured Potency value.
Reply | 10.5 µM (active)

Ask | For the molecule O=C1CC(c2ccc(O)cc2)Oc2ccccc21 (centres undefined) , give its measured Potency value.
Reply | 14.8 µM (active)

Ask | For the molecule CN1CC[C@@]2([C@@]34CCN(C)[C@@H]3Nc3ccccc34)c3ccccc3N[C@@H]12 , give its measured Potency value.
Reply | inactive

Ask | For the molecule C/C(=C\[C@@H](C)CC/C=C/CC/C=C/C(=O)O)[C@H](O)[C@H](C)C(=O)CCCC1CC(=O)NC(=O)C1 , give its measured Potency value.
Reply | inactive

Ask | For the molecule O=c1cc(-c2ccc(O)c(O)c2)oc2cc(O[C@@H]3O[C@H](CO)[C@@H](O)[C@H](O)[C@H]3O)cc(O)c12 , give its measured Potency value.
Reply | 8.31 µM (active)

Ask | For the molecule C=C(C)C(=O)O[C@H]1C[C@@]2(C)OC(=CC2=O)/C(C)=C\[C@H]2OC(=O)C(=C)[C@H]12 , give its measured Potency value.
Reply | 18.6 µM (active)
